# targetSystem: Recombinant human FAP (Homo sapiens, UniProt Q12884)
# Construct: purchased R&D systems
# Sequence (Q12884 1-760): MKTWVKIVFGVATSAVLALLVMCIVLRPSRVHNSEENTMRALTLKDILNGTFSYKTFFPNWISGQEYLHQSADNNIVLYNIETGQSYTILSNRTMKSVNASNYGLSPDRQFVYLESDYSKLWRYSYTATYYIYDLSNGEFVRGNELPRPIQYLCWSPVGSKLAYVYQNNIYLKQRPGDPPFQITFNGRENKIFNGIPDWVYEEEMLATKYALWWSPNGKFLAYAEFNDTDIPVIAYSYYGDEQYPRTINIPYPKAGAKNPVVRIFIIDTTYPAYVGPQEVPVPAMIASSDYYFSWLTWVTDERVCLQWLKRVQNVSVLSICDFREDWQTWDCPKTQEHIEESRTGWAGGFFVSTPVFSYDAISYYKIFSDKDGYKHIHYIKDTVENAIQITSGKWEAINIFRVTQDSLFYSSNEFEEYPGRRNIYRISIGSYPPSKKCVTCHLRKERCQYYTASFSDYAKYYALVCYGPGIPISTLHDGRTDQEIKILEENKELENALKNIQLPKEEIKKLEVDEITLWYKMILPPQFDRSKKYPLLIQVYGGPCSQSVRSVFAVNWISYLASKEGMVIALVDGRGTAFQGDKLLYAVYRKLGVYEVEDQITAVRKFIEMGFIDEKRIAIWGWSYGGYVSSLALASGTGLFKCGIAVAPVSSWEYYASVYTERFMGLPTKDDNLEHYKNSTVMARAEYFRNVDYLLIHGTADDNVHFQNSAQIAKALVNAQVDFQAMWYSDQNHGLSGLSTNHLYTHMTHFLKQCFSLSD
# testName: FAP FRET assay, FGF21-sequence FRET peptide substrate
# Assay type: biochemical
# conditionDetails: FRET peptide with human FGF21 sequence, 6 μM, 37° C.
# Method: The compounds according to the present technology were evaluated in terms of the inhibitory effect on the activity of dipeptidyl peptidases including FAP by using a substrate producing fluorescent substances upon enzymatic decomposition. […] Fluorescence intensity was measured using a microplate reader (Flexstation3, Molecular Devices) under the wavelength condition exciting at 380 nm and reading the emission at 460 nm. […]
observedProperty: IC50 (nM)

Answered examples (3):
molecule | IC50 / nM
N#C[C@@H]1C[C@H](F)CN1C(=O)CN1CC[C@@H](Nc2ccc3nc(C(F)(F)F)ccc3c2)C1 [Example 210] | 3.5
N#Cc1cnc2cccc(N[C@H]3CCN(CC(=O)N4CCC[C@H]4C#N)C3)c2c1 [Example 232] | 1.8
Cc1cccc2c(NC3CCN(CC(=O)N4C[C@@H](F)C[C@H]4C#N)CC3)ccnc12 [Example 343] | 30.7

A. N#C[C@@H]1C[C@H](F)CN1C(=O)CN1CCC(Nc2ccc3nc(C(F)(F)F)ccc3c2)CC1 [Example 381]
B. N#C[C@@H]1CCCN1C(=O)CN1CCC(Nc2ccc(C(=O)Nc3ncccn3)c3ncccc23)CC1 [Example 402]
C. CN(Cc1ccccc1)C(=O)c1ccc(NC2CCN(CC(=O)N3C[C@@H](F)C[C@H]3C#N)CC2)c2cccnc12 [Example 393]
D. CN(C)C(=O)c1ccc(N[C@H]2CCN(CC(=O)N3C[C@@H](F)C[C@H]3C#N)C2)c2cccnc12 [Example 282]
Rank by IC50 (largest to smallest). Please reply with the labels ordered as requested. Many thanks.
C, A, D, B
